Below, pIC50 values reported for Lysine-specific histone demethylase 1A (Homo sapiens, UniProt O60341) across several publications.
pIC50: −log10 of the molar value.

>>> result("Cc1ccc(-c2cnc(OC[C@@H]3CCNC3)nc2-c2ccc(C#N)cc2)cc1")
"> 7.00"
>>> result("Cn1c(-c2ccc(C3CC3)cc2)c(-c2ccc(C#N)cc2)nc(N2CCC(N)CC2)c1=O")
"> 7.00"
>>> result("Cc1ccc(-c2c(-c3ccc(C#N)c(F)c3)nc(N3CCC(N)CC3)c(=O)n2CCO)cc1")
"> 7.00"
>>> result("COc1ccc(-n2nc(NC[C@@H]3CCC[C@H](N)C3)cc2-c2ccc(C#N)c(F)c2)cc1 (single isomer, unassigned)")
"> 6.30"
>>> result("CNC1CCN(c2cc(-c3ccc(C#N)cc3)c(-c3ccc(N(C)C)nc3)n(C)c2=O)CC1")
"> 7.00"
>>> result("N#Cc1ccc(-c2cc(C(=O)N3CCC[C@@H](N)C3)nn2-c2ccc(N3CCC(=O)CC3)cc2)cc1F")
"> 6.30"

Data request, read-out pIC50, for O=C(NC1CC1)c1ccc(-c2nc(C3(CN[C@H]4CC4c4ccccc4)CC3)no2)cc1 (stereo partly shown) ≥ 7.30

Data request, read-out pIC50, for Cc1ccc(-c2c(-c3ccc(C#N)c(F)c3)nc(N3CCC(N(C)C)CC3)n(C)c2=O)cn1 > 7.00

Data request, read-out pIC50, for N#Cc1ccc(-c2nc(NC[C@H]3CCNC3)ncc2C#CC2CC2)cc1 > 7.00

Data request, read-out pIC50, for C[C@@H](c1ccccc1)n1cc(-c2ccc(C#N)cc2)nc(N2CCC(N)CC2)c1=O > 7.00

Data request, read-out pIC50, for COc1ccc(-n2nc(C(=O)N3CCCC(N)C3)cc2-c2ccc(C#N)c(F)c2)cc1F (stereo not shown) > 6.30

Data request, read-out pIC50, for N#Cc1ccc(-c2nc3c(N4CCC[C@@H](N)C4)ccnc3n2-c2c(F)cc(N3CCCC3)cc2F)cc1F 7.54

Data request, read-out pIC50, for COc1ccc(-n2nc(C(=O)N[C@H]3CCC[C@@H](N)C3)cc2-c2ccc(C#N)c(F)c2)cc1 6.00 to 6.30

Data request, read-out pIC50, for CN1CCN(c2ccc(-n3nc(C(=O)N4CCC[C@@H](N)C4)cc3-c3ccc(C#N)c(F)c3)cc2)CC1=O > 6.30

Data request, read-out pIC50, for O=C(O)C1(CN2CCC(c3nc(C4(CN[C@@H]5C[C@H]5c5ccccc5)CC4)no3)CC2)CCC1 6.30 to 7.00

Data request, read-out pIC50, for Cc1c(N)cccc1-c1cn(C2CCCC(O)C2)c2ccc(C#N)cc12 (stereo not shown) 7.22
